# test.target: AnxA2–HA (His6–AnxA2 fused to an HA tag, residues 1–339) (human, UniProt P07355 1-339)
# Sequence (P07355 whole entry, the tested form may be a part): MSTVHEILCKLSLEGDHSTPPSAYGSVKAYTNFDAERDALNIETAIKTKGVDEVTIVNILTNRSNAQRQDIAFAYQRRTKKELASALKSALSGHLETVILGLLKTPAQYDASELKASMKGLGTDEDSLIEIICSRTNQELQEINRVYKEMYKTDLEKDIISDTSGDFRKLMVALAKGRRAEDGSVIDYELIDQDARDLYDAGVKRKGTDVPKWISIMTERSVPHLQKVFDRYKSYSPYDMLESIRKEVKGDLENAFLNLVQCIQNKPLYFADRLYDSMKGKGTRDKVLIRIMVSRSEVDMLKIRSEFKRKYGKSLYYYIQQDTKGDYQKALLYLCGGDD
# procedure.text: […]
test.readout: binding result

TirC-EHEC (residues 366–558), His6-tagged (domain or fragment) SGALILGGGIGVAVTAALHRKNQPVEQTTTTTTTTTTTSARTVENKPANNTPAQGNVDTPGSEDTMESRRSSMASTSSTFFDTSSIGTVQNPYADVKTSLHDSQVPTSNSNTSVQNMGNTDSVVYSTIQHPPRDTTDNGARLLGNPSAGIQSTYARLALSGGLRHDMGGLTGGSNSAVNTSNNPPAPGSHRFV	binds
